- Test system: Rattus norvegicus
- assay notes: Antidiabetic activity in sucrose loaded Wistar rat model assessed as reduction in glucose levels at 100 mg/kg, po
- Type: functional
- Parameters: scale not given: the % may be the effect or the level left
endpoint name: Activity

compound="Cc1ccc(COc2cc(OCc3ccc(C)cc3)cc(-c3cc(=O)c4ccc(OCC(O)CNC(C)C)cc4o3)c2)cc1 (stereo not drawn)" endpoint_name=Activity result=51.6%
compound="COc1ccc(-c2cc(=O)c3ccc(OCC(O)CNC(C)C)cc3o2)cc1OC (stereo not drawn)" endpoint_name=Activity result=23.9%
compound="CC(C)(C)NCC(O)COc1ccc2c(=O)cc(-c3ccc(OCc4ccccc4)c(OCc4ccccc4)c3)oc2c1 (stereo not drawn)" endpoint_name=Activity result=15.9%
